Cited source for all entries: patent US20110195911A1

- Test system: MCF-7 breast cancer cells
- MEASUREMENT_NOTES: MTT cell toxicity assay in MCF-7 breast cancer cells
- Format: cell-based
- MEASUREMENT_SETUP: MCF-7 cells, MTT, final 0.5% FBS, two days with compound; concentration of total growth inhibition (cytostatic)
Where a SMILES comes first, the peptide text is derived from it. The star is where a group is joined. Palmitoyl = CCCCCCCCCCCCCCCC(=O)*
RECORDED_ENDPOINT: TGI

TGI measured on CCCCCCCCCCCCCCCC(=O)N[C@@H](Cc1c[nH]cn1)C(=O)N[C@@H](CCCNC(=N)N)C(=O)N[C@@H](CCCCN)C(=O)N[C@@H](CCCNC(=N)N)C(=O)N[C@@H](CC(N)=O)C(=O)N[C@@H](CC(N)=O)C(=O)N[C@@H](CO)C(=O)N[C@@H](CCCNC(=N)N)C(=O)N[C@@H](CC(C)C)C(=O)NCC(=O)N[C@@H](CC(N)=O)C(=O)NCC(=O)N[C@H](C(N)=O)C(C)C [Peptide 11, Pal-HRKRNNSRLGNGV-NH2] (Palmitoyl-HRKRNNSRLGNGV-NH2) = >5 µM
